- System Tested: T1, biotinylated GITR (human, UniProt Q9Y5U5 26-161, limits assumed, biotinylated (sites not given))
- T1 construct: also called GITR-bio; Biotin-GITR
- T1 sequence: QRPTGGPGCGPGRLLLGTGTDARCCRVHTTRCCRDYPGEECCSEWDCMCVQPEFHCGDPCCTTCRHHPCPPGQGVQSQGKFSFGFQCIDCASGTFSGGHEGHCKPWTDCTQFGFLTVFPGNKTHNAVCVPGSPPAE
- Assay Explanation: BLI (Octet), biotin-GITR on streptavidin tips, antibody supernatant
- Protocol: Several hundred germlined antibodies were selected based on binding kinetics as determined by Octet measurements (Octet RED 96 system; ForteBio™ Inc., Menlo Park, Calif.). […] Dissociation of the antibody-antigen complex was measured in wells containing the Octet buffer alone for 5 minutes. […] Affinity, Kₒₙ and Koff were determined with Octet evaluation software v6.3 using a 1:1 binding model with local full fitting.

{"Binder": "germline variant antibody 85 (H1917E02 / K1917E02) (antibody, V domains shown, IGHG1/IGKC expression vectors; measured from CHO culture supernatant; also called Antibody ID 85) VH: QVQLVQSGAEVKKPGASVKVSCKASGYTFTEYAMYWVRQAPGQGLEWMGVIRTYSGGVTYNQKFKDRATMTVDTSISTAYMELSRLRSDDTAVYYCAKSGTVRGFAYWGQGTLVTVSS VL: DIVMTQSPDSLAVSLGERATINCKSSQSLLNSSNQKNYLSWYHQKPGQPPKLLIYWASTRESGVPDRFSGSGSGTDFTLTISSVQAEDVAVYYCQNDYSYPYTFGQGTKLEIK", "koff": "0.00037 s⁻¹"}
{"Binder": "germline variant antibody 33 (H1916D03 / K1916D03) (antibody, V domains shown, IGHG1/IGKC expression vectors; measured from CHO culture supernatant; also called Antibody ID 33) VH: QVQLVQSGAEVKKPGASVKVSCKASGYTFTGYAMYWVRQAPGQGMEWIGLIRTYSGGVTYNQKFQGRVTMTVDTSISTAYMELSRLRSDDTAVYYCAKSGTVRGFAYWGQGTLVTVSS VL: DIVMTQSPDSLAVSLGERATINCKSSQSLLNSGNQKNYLSWYHQKPGQPPKLLIYWASTRESGVPDRFSGSGSGTDFTLTISSVQAEDVAVYHCQNEYSYPYTFGQGTKLEIK", "koff": "0.00101 s⁻¹"}

Reference source: patent US20210070872A1
